Numbers sourced from patent US20040077674A1.

- assayed system: RNA-dependent DNA polymerase activity of HIV reverse transcriptase (Human immunodeficiency virus type 1 group M subtype B, UniProt P03366)
- Construct: made in house
- procedure text: RNA-dependent DNA polymerase activity assay of HIV reverse transcriptase
- Format: biochemical, HIV-1
- experimental context: 10 μM inhibitor concentration; activity in presence / in absence of analog x 100
measured property: Residual activity (%) Polymerase
Quick reminder: number only, in %, skip the unit.

Below, each entry is followed by its recorded Residual activity (%) Polymerase result.
• Cc1c(C(O)Cc2ccccc2)cc2n(c1=O)Cc1c-2nc2ccc(F)cc2c1[Si](C)(C)C(C)(C)C (stereo not drawn) = 61
• CCC(=O)c1cc2n(c(=O)c1C)Cc1c-2nc2ccc(OC)cc2c1[Si](C)(C)C(C)(C)C = 80
• Cc1c(C(=O)C(C)(C)C)cc2n(c1=O)Cc1c-2nc2ccc(F)cc2c1[Si](C)(C)C(C)(C)C = 82

Query block: Provide Residual activity (%) Polymerase value for the following molecule: Cc1c(C(O)C(C)(C)C)cc2n(c1=O)Cc1c-2nc2ccccc2c1[Si](C)(C)C (stereo not drawn)
Result block: 103

Query block: Provide Residual activity (%) Polymerase value for the following molecule: COc1ccc2nc3c(c([Si](C)(C)C)c2c1)Cn1c-3cc(C(O)C(C)(C)C)c(C)c1=O (stereo not drawn)
Result block: 76

Query block: Provide Residual activity (%) Polymerase value for the following molecule: Cc1c(C(=O)C(C)(C)C)cc2n(c1=O)Cc1c-2nc2ccc(F)cc2c1[Si](C)(C)C
Result block: 63

* * *

- assayed system: RNA-dependent DNA polymerase activity of HIV reverse transcriptase (Human immunodeficiency virus type 1 group M subtype B, UniProt P03366)
- Construct: made in house
- procedure text: RNA-dependent DNA polymerase activity assay of HIV reverse transcriptase
- Type: biochemical, HIV-1
- experimental context: 10 μM inhibitor concentration; activity in presence / in absence of analog x 100
measured property: Residual activity (%) Polymerase
Quick reminder: number only, in %, skip the unit.

Below, each entry is followed by its recorded Residual activity (%) Polymerase result.
* CCCCCCc1c2c(nc3ccccc13)-c1cc(C(=O)CCC3CCCCC3)c(C)c(=O)n1C2 [5 (8Aδκ)] | 63
* CCC(=O)c1cc2n(c(=O)c1C)Cc1c-2nc2ccccc2c1-c1ccccc1 [5 (3Aακ)] | 64
* COc1ccc2nc3c(c([Si](C)(C)C(C)(C)C)c2c1)Cn1c-3cc(C(=O)C(C)(C)C)c(C)c1=O [5 (4Dβκ)] | 64
* Cc1ccc2nc3c(c(-c4ccccc4)c2c1)Cn1c-3cc(C(O)CCC2CCCCC2)c(C)c1=O (stereo not shown) [5 (30δ)] | 74

Query block: Provide Residual activity (%) Polymerase value for the following molecule: Cc1c(C(O)CCC2CCCCC2)cc2n(c1=O)Cc1c-2nc2ccc(F)cc2c1-c1ccccc1 (stereo not shown) [5 (3Bδ)]
Result block: 81

Query block: Provide Residual activity (%) Polymerase value for the following molecule: Cc1c(C(=O)CCC2CCCCC2)cc2n(c1=O)Cc1c-2nc2ccccc2c1-c1ccccc1 [5 (3Aδκ)]
Result block: 66

Query block: Provide Residual activity (%) Polymerase value for the following molecule: CCCCCCc1c2c(nc3ccccc13)-c1cc(C(O)C(C)(C)C)c(C)c(=O)n1C2 (stereo not shown) [5 (8Aβ)]
Result block: 103
